Sourced from PubChem BioAssay (NCI)

# Test system: M14 melanoma
# Protocol Details: NCI-60 one-dose screen, 48 h (100 = growth as untreated, 0 = no growth, -100 = all killed)
# Measurement Conditions: 10 µM
The panel holds about 83,000 compounds, 20% with a hit somewhere; the sample as a whole holds those more often.
growth values by entry
Write the value in % as a bare number.

Some solved entries appear below for comparison.
Compound	Endpoint	Obs Value
CCOC(=O)N/C(=C1/OCCN1C)[P+](c1ccccc1)(c1ccccc1)c1ccccc1	growth	90.9
CC(C)NC(=O)c1cc(-c2ccc(NC(=O)Nc3ccc(N4CCN(C)CC4)c(C(F)(F)F)c3)cc2)nc2cccnc12	growth	-86.6

Ask | I'd like to know its growth. The compound in question is "COc1ccc(NC(=O)Cn2c(/C=C/c3ccc(N(C)C)cc3)nc3ccccc3c2=O)cc1"
Reply | 81

Ask | I'd like to know its growth. The compound in question is CC1CC(c2ccc(N(C)C)cc2)=NN1c1nc(O)c(C2=c3cc(Br)ccc3=NC2=O)s1 (centres undefined)
Reply | 84.8

Ask | I'd like to know its growth. The compound in question is "CCCCCc1ccc(S(=O)(=O)N(C(C)=O)c2cc(-c3csc(N(C)C(C)=O)n3)ccc2N2CCN(C)CC2)cc1"
Reply | -78.1

====

# System: SR leukemia
# Protocol Details: NCI-60 one-dose screen, 48 h
# Measurement Conditions: 10 µM
# Description: Growth inhibition of the SR human tumor cell line is measured as a screen for anti-cancer activity. Cells are grown in 96 well plates and exposed to the test compound for 48 hours. Compounds are tested at a single concentration, which is 10^-5 M for most compounds. The reported endpoint is percent growth (GI% or GIPRCNT), where numbers from 0 - 100% represent growth inhibition, and numbers from -100% - 0 represent cell death. For example, a value of 40 represents 60% growth inhibition. […]
This is part of a sample that, as a whole, favours compounds with a hit. Of some 83,000 tested, about 20% had one in any assay. Calls of active or inactive are those of the source. Rule for the calls: active = growth percent below 10; inactive = the rest.
# valid calls are YES for active, NO for inactive; nothing else

Compound	Class Label
O=C(Nc1ccc(Cl)c([N+](=O)[O-])c1)Nc1ccc(Cl)c([N+](=O)[O-])c1	NO

Ask | I'd appreciate the recorded outcome for "CN1CCN(Cc2ccc(NC(=O)c3cncc(C#Cc4cnc5ccc(N[C@H]6CCOC6)nn45)c3)cc2C(F)(F)F)CC1" from this test.
Reply | YES

Ask | I'd appreciate the recorded outcome for "COc1cnc2c(c1)C(=O)c1c-2n(CCCNC(C)C)c(=O)c2cc(OC)c(OC)cc12" from this test.
Reply | YES

Ask | I'd appreciate the recorded outcome for CC(=O)OC[C@@]1(C)C2CC[C@]3(C)C(CC=C4C5CC(C)(C)CC[C@]5(C(=O)Nc5ccccc5)CC[C@]43C)[C@@]2(C)C[C@@H](OC(C)=O)[C@@H]1OC(C)=O (stereo partly drawn) from this test.
Reply | NO

Ask | I'd appreciate the recorded outcome for "CC(=O)Nc1ccc(-c2cn(-c3cccc(C(=O)Nc4cccc(OC(F)(F)F)c4)c3)nn2)cn1" from this test.
Reply | NO

====

# System: T-47D breast
# Protocol Details: NCI-60 one-dose screen, 48 h
# Measurement Conditions: 10 µM
This is part of a sample that, as a whole, favours compounds with a hit. Of some 83,000 tested, about 20% had one in any assay. Activity calls are given as the source filed them. The calls were made as follows: active = growth percent below 10; inactive = the rest.
# valid calls are T (active), F (inactive); nothing else

Compound	Class Label
CCCS(=O)(=O)c1oc(-c2ccc(F)cc2)nc1S(=O)(=O)c1ccc(F)cc1	T
COc1ccc(C(C)=C(c2ccc(OCCCN(C)C)cc2)c2ccc(OCCCN(C)C)cc2)cc1	T
Clc1ccc(/C=N/Nc2ncnc3sc4c(c23)CCN(Cc2ccccc2)C4)cc1	T
O=C(Nc1ccc(Cl)c(C(F)(F)F)c1)c1cncc(C#Cc2cnc3ccc(N4CCOCC4)nn23)c1	T
CN1CCN(c2ccc(Nc3nc(NCCNC(=O)c4ccc(C(F)(F)F)cc4)c4sccc4n3)cc2)CC1	T
O=C(c1ccc(Cl)cc1)C1[C@H](c2ccccc2Br)[C@@H](c2ccccc2)NC12C(=O)Nc1ccc(Cl)cc12 (some centres not stated)	F

Ask | I'd appreciate the recorded outcome for "O=C(c1ccccc1)n1ccc(-c2cc3cc(Br)ccc3oc2=O)n1" from this test.
Reply | T

Ask | I'd appreciate the recorded outcome for "Cc1ccc(NCC(=O)Nn2c(COc3ccccc3)nc3ccccc3c2=O)cc1" from this test.
Reply | F

Ask | I'd appreciate the recorded outcome for "COc1cc(/C=C/C(=O)c2ccc(NC(=O)CSc3nnc(-c4c[nH]c5ccccc45)n3-c3ccccc3)cc2)cc(OC)c1OC" from this test.
Reply | F

Ask | I'd appreciate the recorded outcome for "O=C(Nc1cccc(-c2cn(-c3ccc4oc(=O)ccc4c3)nn2)c1)Nc1cc(C(F)(F)F)cc(C(F)(F)F)c1" from this test.
Reply | T

Ask | I'd appreciate the recorded outcome for "Cc1ccc(-c2nc3ccc(C(=O)N=Nc4c(O)[nH]c5ccc(Cl)cc45)cc3[nH]2)cc1" from this test.
Reply | T

====

# Tested on: NCI-H322M lung
# Protocol Details: NCI-60 one-dose screen, 48 h (100 = growth as untreated, 0 = no growth, -100 = all killed)
# Measurement Conditions: 10 µM
About 83,000 compounds went through this panel and 20% of them were active in at least one assay; those are over-represented in the sample as a whole.
growth values by entry
Write the value in % as a bare number.

Compound	Subject Of Test	Units Of Measure	Obs Value
COc1csc(/C=N/NC(=O)c2[nH]c3ccc(Br)cc3c2-c2ccccc2)c1	NCI-H322M lung	%	34.7

Ask | I'd like to know its growth. The compound in question is "CN(C)CCNC(=O)OCCCCOc1cc(O)c2c(=O)cc(-c3ccccc3)oc2c1"
Reply | -31.2

Ask | I'd like to know its growth. The compound in question is "N#Cc1c(NC(=O)c2ccc(C(F)(F)F)cc2)sc2c1CCC(O)=C2"
Reply | 46.1

Ask | I'd like to know its growth. The compound in question is "CCOc1ccc(/C=N/NC(=O)Cn2nc(Cc3ccc([N+](=O)[O-])cc3)c3onc(C)c3c2=O)cc1"
Reply | 29.4

====

growth values by entry
# Tested on: EKVX NSCLC
# Protocol Details: NCI-60 one-dose screen, 48 h (100 = growth as untreated, 0 = no growth, -100 = all killed)
# Measurement Conditions: 10 µM
About 83,000 compounds went through this panel and 20% of them were active in at least one assay; those are over-represented in the sample as a whole. The source made the active and inactive calls. The calls were made as follows: active = growth percent below 10; inactive = the rest.

Some solved entries appear below for comparison.
Compound	Subject Of Test	growth
O=C(Nc1nc2ccccc2s1)c1ccc(Br)cc1	EKVX NSCLC	63.5% (inactive)
C/C(=N\NC(N)=S)c1ccc(Nc2nc(SC(C)C)nc(-c3ccccc3)c2C#N)cc1	EKVX NSCLC	75.9% (inactive)
CCOc1ccc2ncc(C#Cc3cncc(C(=O)Nc4ccc(CN5CCN(C)CC5)c(C(F)(F)F)c4)c3)n2n1	EKVX NSCLC	-65.8% (active)
COc1ccc(-c2nc(Nc3ccccc3S(N)(=O)=O)c3ccccc3n2)cc1	EKVX NSCLC	65% (inactive)
COc1ccc2nc(Nc3cccc(NC(=O)c4ccc(CN5CCN(C)CC5)c(C(F)(F)F)c4)c3)ccc2c1	EKVX NSCLC	-98% (active)

Ask | I'd like to know its growth. The compound in question is "CN1CCN(c2ccc(Nc3nc(NCCCNC(=O)c4ccc(F)cc4)c4sccc4n3)cc2)CC1"
Reply | 87.8% (inactive)

Ask | I'd like to know its growth. The compound in question is "Cc1ccc(/C=C/C(=O)c2ccc(NC(=O)CSc3nnc(-c4c[nH]c5ccccc45)n3-c3ccccc3)cc2)cc1"
Reply | 77% (inactive)

Ask | I'd like to know its growth. The compound in question is "CCCS(=O)(=O)c1oc(-c2ccc(F)cc2)nc1S(=O)(=O)c1ccc(F)cc1"
Reply | 82.8% (inactive)

====

# Tested on: UO-31 renal
# Protocol Details: NCI-60 one-dose screen, 48 h (100 = growth as untreated, 0 = no growth, -100 = all killed)
# Measurement Conditions: 10 µM
Compounds without any hit were thinned out: in the full panel of roughly 83,000, 20% have a hit. The source made the active and inactive calls. How the source made its calls: active means growth percent below 10; inactive means the rest.
growth values by entry

Cc1ccc(C(=O)N/C(=C2/OCCN2C)[P+](c2ccccc2)(c2ccccc2)c2ccccc2)cc1 85.4% (inactive)

Ask | I'd like to know its growth. The compound in question is "O=C(CS(=O)(=O)c1oc(-c2ccc(Cl)cc2)nc1S(=O)(=O)c1ccc(Cl)cc1)N1CCOCC1"
Reply | -19.9% (active)

Ask | I'd like to know its growth. The compound in question is "Cc1ccc(C(=O)NNC(=O)CSc2nc3ccccc3c(=O)[nH]2)cc1"
Reply | 75.2% (inactive)

Ask | I'd like to know its growth. The compound in question is "Cc1ccc(/C=C/C(=O)c2ccc(S(=O)(=O)NCCNc3nc(Nc4ccc(F)cc4)nc(N(C)C)n3)cc2)cc1"
Reply | 36.8% (inactive)

Ask | I'd like to know its growth. The compound in question is "COc1ccc2[nH]cc(/C=N/Nc3cccc(Cl)n3)c2c1"
Reply | 33.5% (inactive)
